All values here come from PubChem BioAssay (NCI).

Each entry below carries its recorded TGI.
system: BT-549 breast; experiment: NCI tumour cell line growth inhibition, 48 h

Examples with answers:
COMPOUND	TGI
CC(C)C(Br)CC/C(CBr)=C(\Cl)CCl (stereo not drawn)	3.27 µM
CC1(CO)OC(n2cnc3cncnc32)CC1O (stereo not drawn)	> 100 µM
C[C@@H](O)[C@H]1C(=O)N2C(C(=O)O)=C(SCCN=CN)C[C@H]12	7.6 µM
CO[C@H](C(=O)[C@@H](O)[C@@H](C)O)[C@@H]1Cc2cc3cc(O[C@H]4C[C@@H](O[C@H]5C[C@@H](O)[C@H](O)C(C)O5)[C@H](O)C(C)(O)O4)cc(O)c3c(O)c2C(=O)[C@H]1O[C@H]1C[C@@H](O[C@H]2C[C@@H](O[C@H]3C[C@@H](OC)[C@H](O)C(C)O3)[C@@H](O)C(C)O2)[C@H](O)C(C)O1 (stereo partly drawn)	> 16.8 µM
CNC(=O)C(C)C1C(=O)/C(=C(O)/C=C\C(C)=C\C(C)C2OC3(C)OC(C=CC34CO4)C2C)C(=O)N1C1CCC(O)C(C)O1 (stereo not drawn)	> 100 µM

Q) Please report the measured TGI for COc1ccc(-c2cc(-c3cc(F)c(Cl)cc3Cl)[nH]n2)cc1OC tested on BT-549 breast.
A) > 100 µM

Q) Please report the measured TGI for CC(C)NCC(O)c1cc(OCc2ccccc2)c(OCc2ccccc2)cc1NC(=O)CCC(=O)O (stereo not drawn) tested on BT-549 breast.
A) 31.1 µM

Q) Please report the measured TGI for Nc1nc(N)c2cc(CNc3ccc(C(=O)NC(CC(=O)O)C(=O)O)cc3)ccc2n1 (stereo not drawn) tested on BT-549 breast.
A) > 100 µM

Q) Please report the measured TGI for COc1ccc(CCn2nccc2C)cc1 tested on BT-549 breast.
A) > 100 µM

Q) Please report the measured TGI for COc1ccc2c(c1)c(=O)c1c(NCCN(C)C)ccc3c(=O)n(CCN(C)C)c(=O)n2c31 tested on BT-549 breast.
A) 3.22 µM

* * *

test system: TK-10 renal; test: NCI tumour cell line growth inhibition, 48 h
REPORTED_ENDPOINT: TGI

Examples with answers:
COMPOUND	REPORTED_ENDPOINT	READING
COc1ccc(/C=C/C(=O)c2cccc(B(O)O)c2)cc1O	TGI	24.1 µM
CN(C)CCCN1c2ccccc2CCc2cccc([N+](=O)[O-])c21	TGI	37.2 µM
c1ccc(NNN2NC(c3ccccc3)C2c2ccccc2)cc1 (stereo not given)	TGI	> 100 µM
CCCCOC(=O)NC(Nc1ccc(S(N)(=O)=O)cc1)(C(F)(F)F)C(F)(F)F	TGI	> 100 µM
FC(F)(F)c1cccc(Nc2nc3ccccc3nc2Nc2cccc(C(F)(F)F)c2)c1	TGI	3.8 µM
O=C1c2ccccc2CCC1C(O)(C(F)(F)F)C(F)(F)F (stereo not given)	TGI	> 100 µM
COC(=O)[C@@H](Cc1ccccc1)NNC(=O)OC(C)(C)C	TGI	> 100 µM
Cc1cc(O)c2c3c1C(=O)Oc1c(CO)c(O)c(C(=O)O)c(c1O3)C=NN=Cc1c3c(c(CO)c(O)c1C(=O)O)OC(=O)c1c(C)cc(O)c(c1O3)C=NN=C2	TGI	> 100 µM
COC1CC(OC2C(C)OC(OC3C(C)OC(OC4C(C)OC(O[C@H]5CC[C@@]6(C)C(=CC[C@]7(O)[C@@H]6C[C@@H](OC(=O)/C=C/c6ccccc6)[C@@]6(C)[C@]7(O)CC[C@@]6(O)C(C)=O)C5)CC4OC)CC3OC)CC2OC)OC(C)C1O (stereo not given in full)	TGI	> 12.5 µM
CC(C)[Si]1(C(C)C)OCC2OC(N3C(=O)NC(=O)C[C@@H]3C(O)c3ccccc3)CC2O[Si](C(C)C)(C(C)C)O1 (stereo not given in full)	TGI	24 µM

Q) Please report the measured TGI for Cn1ccnc1Sc1ccc(/C=N/NC(=O)c2ccccc2[N+](=O)[O-])cc1[N+](=O)[O-] tested on TK-10 renal.
A) > 100 µM

Q) Please report the measured TGI for O=C(CC1(O)C(=O)Nc2c(Cl)cc(Cl)cc21)c1ccco1 (stereo not given) tested on TK-10 renal.
A) > 100 µM
